Would you mind telling me the reported inhibition of each entry?
target: RAC-alpha serine/threonine-protein kinase (Homo sapiens, UniProt P31749); test: Inhibition of PKB at 20 uM by radioactive kinase assay relative to control
Sequence (P31749 whole entry): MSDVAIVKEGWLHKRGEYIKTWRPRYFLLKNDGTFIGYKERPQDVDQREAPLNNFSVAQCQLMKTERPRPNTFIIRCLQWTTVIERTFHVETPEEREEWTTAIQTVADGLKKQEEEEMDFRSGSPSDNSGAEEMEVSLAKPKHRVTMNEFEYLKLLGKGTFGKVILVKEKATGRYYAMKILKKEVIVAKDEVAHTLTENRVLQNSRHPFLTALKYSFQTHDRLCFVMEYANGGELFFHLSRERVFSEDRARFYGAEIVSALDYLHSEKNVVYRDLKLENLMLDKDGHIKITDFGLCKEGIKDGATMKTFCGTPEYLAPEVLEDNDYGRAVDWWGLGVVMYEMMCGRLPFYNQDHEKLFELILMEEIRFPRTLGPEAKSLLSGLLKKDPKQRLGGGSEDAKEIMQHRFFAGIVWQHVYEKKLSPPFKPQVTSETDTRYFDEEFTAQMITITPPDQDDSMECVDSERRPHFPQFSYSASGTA
Peptide text beside a SMILES is read from it.
Give just the numeric value; % need not be written.

Ask | Field request: inhibition | item: CCC[C@H](NC(=O)[C@H](CCCNC(=N)N)NC(=O)[C@@H]1CCCN1C(=O)[C@H](CCCNC(=N)N)NC(=O)[C@H](CCCCN)NC(C)=O)C(=O)N[C@@H](Cc1ccc(O)cc1)C(=O)N[C@@H](CN)C(=O)N[C@@H](CCC(C)C)C(N)=O (HELM PEPTIDE1{[ac].K.R.P.R.[Nva].Y.[NC[C@H](N[*:1])C(=O)[*:2]].[CC(C)CC[C@H](N[*:1])C(=O)[*:2]].[am]}$$$$V2.0)
Reply | 85

Ask | Quick check: inhibition of CCC[C@H](NC(=O)[C@H](CCCNC(=N)N)NC(=O)[C@@H]1CCCN1C(=O)[C@H](CCCNC(=N)N)NC(=O)[C@H](N)CCCNC(=N)N)C(=O)N[C@@H](Cc1ccc(O)cc1)C(=O)N[C@@H](CN)C(=O)N[C@@H](CCC(C)C)C(=O)O ?
Reply | 69

Ask | Please look up its inhibition: CCC[C@H](NC(=O)[C@H](CCCNC(=N)N)NC(=O)[C@@H]1CCCN1C(=O)[C@H](CCCNC(=N)N)NC(=O)[C@H](CCCNC(=N)N)NC(C)=O)C(=O)N[C@@H](Cc1ccc(O)cc1)C(=O)N[C@@H](CN)C(=O)N[C@@H](CCC(C)C)C(N)=O (HELM PEPTIDE1{[ac].R.R.P.R.[Nva].Y.[NC[C@H](N[*:1])C(=O)[*:2]].[CC(C)CC[C@H](N[*:1])C(=O)[*:2]].[am]}$$$$V2.0)
Reply | 94
